target entity: EP4 (Homo sapiens, UniProt P35408)
Sequence (P35408 whole entry): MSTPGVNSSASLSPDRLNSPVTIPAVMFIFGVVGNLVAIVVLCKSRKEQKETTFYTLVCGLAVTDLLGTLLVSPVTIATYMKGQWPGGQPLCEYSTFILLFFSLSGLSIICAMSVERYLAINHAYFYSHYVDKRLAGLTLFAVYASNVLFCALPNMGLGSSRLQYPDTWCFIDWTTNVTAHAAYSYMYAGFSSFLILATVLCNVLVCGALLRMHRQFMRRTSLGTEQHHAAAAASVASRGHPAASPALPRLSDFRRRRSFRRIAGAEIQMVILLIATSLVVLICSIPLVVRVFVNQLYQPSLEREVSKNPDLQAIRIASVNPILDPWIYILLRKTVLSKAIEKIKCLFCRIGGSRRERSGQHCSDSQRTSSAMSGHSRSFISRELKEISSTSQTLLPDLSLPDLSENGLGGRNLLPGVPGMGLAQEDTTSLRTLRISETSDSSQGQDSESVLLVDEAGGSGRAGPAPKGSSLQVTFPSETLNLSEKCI
protocol notes: EP4 flipr
measurement name: EC50 (µM)
State just the number; it will be interpreted in µM.

The recorded EC50 for CCCCCCc1ccc(N2C(=O)CC[C@@H]2CCCc2ccc(C(=O)O)s2)cc1 is 11.3

----------
target entity: UniProt P43116
protocol notes: EP2 flipr
Assay type: cell-based
measurement name: EC50 (nM)
State just the number; it will be interpreted in nM.

The recorded EC50 for CCCCCCc1ccc(N2C(=O)CC[C@@H]2CCCc2ccc(C(=O)O)s2)cc1 [Compound 9] is 5

----------
target entity: EP2 (Homo sapiens)
Sequence (P43116 whole entry): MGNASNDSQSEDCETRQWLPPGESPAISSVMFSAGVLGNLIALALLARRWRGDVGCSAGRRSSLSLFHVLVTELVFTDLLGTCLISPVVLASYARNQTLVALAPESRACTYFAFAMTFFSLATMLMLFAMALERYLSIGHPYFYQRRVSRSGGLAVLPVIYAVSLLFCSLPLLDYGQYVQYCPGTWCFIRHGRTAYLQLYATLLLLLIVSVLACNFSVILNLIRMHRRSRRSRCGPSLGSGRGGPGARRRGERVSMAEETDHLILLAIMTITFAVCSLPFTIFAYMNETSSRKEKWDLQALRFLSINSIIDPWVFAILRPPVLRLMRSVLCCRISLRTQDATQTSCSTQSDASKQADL
measurement name: Ki (nM)
State just the number; it will be interpreted in nM.

Record CCCCCCc1ccc(N2C(=O)CC[C@@H]2CCCc2ccc(C(=O)O)s2)cc1 [Compound 9] / EP2 (Homo sapiens), Ki recorded as 3
